Source listed as paper PMC9147789.

- assay method text: Stability of the analytes in plasma (bench top, autosampler, freeze-thaw, long-term)
- Format: physicochemical, human
- condition notes: plasma, higher QC level (RIB 2500, ABE 1500, PAL 250, ANA 100, LET 250, FUL 500 ng/mL), N = 3
result type: Stability Bias (%) 1 FT Cycle (30 min, −18–25 °C)

Example entries and their recorded answers appear below.
C[C@]12CC[C@@H]3c4ccc(O)cc4C[C@@H](CCCCCCCCC[S+]([O-])CCCC(F)(F)C(F)(F)F)[C@H]3[C@@H]1CC[C@@H]2O (stereo partly drawn) [FUL, fulvestrant]    2.23
CCN1CCN(Cc2ccc(Nc3ncc(F)c(-c4cc(F)c5nc(C)n(C(C)C)c5c4)n3)nc2)CC1 [ABE, abemaciclib]    9.37
CC(=O)c1c(C)c2cnc(Nc3ccc(N4CCNCC4)cn3)nc2n(C2CCCC2)c1=O [PAL, palbociclib]    6.35

A. CC(C)(C#N)c1cc(Cn2cncn2)cc(C(C)(C)C#N)c1 [ANA, anastrozole]
B. N#Cc1ccc(C(c2ccc(C#N)cc2)n2cncn2)cc1 [LET, letrozole]
C. CN(C)C(=O)c1cc2cnc(Nc3ccc(N4CCNCC4)cn3)nc2n1C1CCCC1 [RIB, ribociclib]
Exam item: list the entries in increasing order of Stability Bias (%) 1 FT Cycle (30 min, −18–25 °C). Lab note: record answer as labels in requested order.
B, A, C
(B: 2.07%, A: 6.65%, C: 11.10%)
